ASSAY: Inhibition of RNA polymerase-sigma factor (unknown origin) interaction at 15 uM after 1 hr by ELISA
MEASURED ENDPOINT: inhibition (%)

COc1cc(OC)c2c(-c3ccc(Cl)cc3)c(C(=O)C(=O)NNC(=S)N(C)C)[nH]c2c1 20.4
COc1cc(OC)c2c(-c3ccc(Br)cc3)c(C(=O)c3nnc(N(C)C)s3)[nH]c2c1 19
COc1cc(OC)c2c(-c3ccc(Cl)cc3)c[nH]c2c1-c1nnc(-c2c(OC)cc(OC)c3c(-c4ccc(Cl)cc4)c[nH]c23)o1 17.8
COc1cc(OC)c2c(-c3ccc(Cl)cc3)c(C(=O)c3nnc(N(C)C)s3)[nH]c2c1 17.2

a. COc1cc(OC)c2c(-c3ccc(Br)cc3)c(C(=O)C(=O)NNC(=S)N(C)C)[nH]c2c1
b. COc1cc(OC)c2c(-c3ccc(Br)cc3)c[nH]c2c1C(=O)NNC(=O)c1c(OC)cc(OC)c2c(-c3ccc(Br)cc3)c[nH]c12
c. COc1cc(OC)c2c(-c3ccc(Cl)cc3)c[nH]c2c1C(=O)NNC(=O)c1c(OC)cc(OC)c2c(-c3ccc(Cl)cc3)c[nH]c12
**Query** Sort (3 compounds) by inhibition: min first. # respond with the labels, arranged in the requested order
**Result** a, b, c
